Target: CGRP1 receptor (CRLR/RAMP1 complex) of human neuroblastoma SK-N-MC cells (human, UniProt Q16602 23-461; O60894 27-148)
Sequence (Q16602 23-461, chain 1 of 2): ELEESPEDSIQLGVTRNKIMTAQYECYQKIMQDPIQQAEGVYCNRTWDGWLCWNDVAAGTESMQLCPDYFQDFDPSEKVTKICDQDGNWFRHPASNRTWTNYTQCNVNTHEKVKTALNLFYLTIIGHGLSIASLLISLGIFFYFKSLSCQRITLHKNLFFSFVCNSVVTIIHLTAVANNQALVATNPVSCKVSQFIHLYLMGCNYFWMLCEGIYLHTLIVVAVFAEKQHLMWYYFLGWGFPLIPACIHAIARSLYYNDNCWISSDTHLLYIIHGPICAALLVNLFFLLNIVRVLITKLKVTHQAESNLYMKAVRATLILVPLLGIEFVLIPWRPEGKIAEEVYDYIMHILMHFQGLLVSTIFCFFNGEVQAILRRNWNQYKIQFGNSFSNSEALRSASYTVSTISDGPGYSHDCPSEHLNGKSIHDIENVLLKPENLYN
Sequence (O60894 27-148, chain 2 of 2): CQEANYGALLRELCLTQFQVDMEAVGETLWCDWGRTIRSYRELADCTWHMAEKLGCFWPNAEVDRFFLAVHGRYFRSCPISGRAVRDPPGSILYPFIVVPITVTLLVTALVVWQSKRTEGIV
Test: cell-based or functional assay
Bridge positions count the residues as written; N and C are the ends. Square brackets hold non-standard residues; d marks the D form. hArg = N=C(N)NCCCC[C@H](N)C(=O)O
PEG-peptide IC50 strictly under 8 nM means y; at 8 nM or over means n.

Before answering, review these 4 worked examples.
Ac-WVTHQLAGLLSQSGGVVRKNFVPTDVGPFAF-NH2 (also: PEG-conjugated, in most cases at Lys25) [PEG-peptide of SEQ ID NO 857] | y
WVTHXLAGLLSXSGGVVXKNFVPTDVGPFAF (Ac-WVTH[Cit]LAGLLS[Cit]SGGVV[hArg](30 KPEGald)NFVPTDVGPFAF-NH2) [PEG-peptide of SEQ ID NO 941] | y
Ac-WVEHRLEGLLKRSGGVVRKNFVPTDVGPFAF-NH2 (lactam 7-11; also: PEG-conjugated, in most cases at Lys25) [PEG-peptide of SEQ ID NO 890] | y
Ac-WVTHRLAGLLPRSGGVVRKNFVPTDVGPFAF-NH2 (also: PEG-conjugated, in most cases at Lys25) [PEG-peptide of SEQ ID NO 858] | y

Now let's try a different one.
IN: Consider the binder Ac-WVTHQLAGLLSQSGGVV[hArg]KNFVPTDVGPFAF-NH2 (also: PEG-conjugated, in most cases at Lys25) [PEG-peptide of SEQ ID NO 885] . Is its PEG-peptide IC50 strictly less than 8 nM?
OUT: n
